Target: Aβ 1-42 fibrils (Homo sapiens)
Construct: pre-fibrillized human Aβ 1-42 (rPeptide); purchased rPeptide
Sequence (P05067 672-713 limits assumed): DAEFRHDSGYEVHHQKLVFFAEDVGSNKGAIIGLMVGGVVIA
Experiment: Congo red binding assay, Aβ 1-42 fibrils
Format: biochemical
Conditions: compound:peptide molar ratio 0.1:1; 2-day incubation
Congo Red Binding % Inhibition overview
// note: answer is a bare numeric in %

Here are 3 molecules together with their reported answers.
# compound.structure, Congo Red Binding % Inhibition [%]
records = [
    ("Cn1c(=O)c2c(ncn2Cc2ccc(O)c(O)c2)n(Cc2ccc(O)c(O)c2)c1=O", 4),
    ("Cn1c(=O)c2c(nc(-c3ccc(O)c(O)c3)n2C)n(C)c1=O", 7),
    ("Cn1cnc2c1c(=O)n(Cc1ccc(O)c(O)c1)c(=O)n2Cc1ccc(O)c(O)c1", 10),
]

Note: attention shifts to another entry.
Prompt line: Fill blank: measured Congo Red Binding % Inhibition of the molecule Cn1c(=O)n(Cc2ccc(O)c(O)c2)c(=O)c2c1ncn2Cc1ccc(O)c(O)c1 is ____.
Response line: 13
